- STUDY_TARGET: human Serotonin, 5-Hydroxytryptamine Receptor 5A (5HT5A), HTR5A (gene 3361)
- PROTOCOL_DETAILS: NVS_GPCR_h5HT5A: NovaScreen (NVS) G Protein-Coupled Receptor Assay for human Serotonin, 5-Hydroxytryptamine Receptor 5A (5HT5A) (AID 2283251)
Results filed as inconclusive are left out. Active and inactive are the calls of the source. The calls were made as follows: active = hit-call score of the fitted dose curve at least 0.9, where 1 is the maximum; inconclusive = response in the unintended direction; inactive = score below 0.9.
Listed next: entries and their corresponding AC50.
OBSERVED_PROPERTY: AC50

[[record]]
mol_smiles = "O=C(O)C(F)(F)C(F)(F)C(F)(F)C(F)(F)C(F)(F)C(F)(F)C(F)(F)C(F)(F)F"
study_target = "human Serotonin, 5-Hydroxytryptamine Receptor 5A (5HT5A), HTR5A (gene 3361)"
observed_property = "AC50"
readout_value = "17.7 µM (active)"

[[record]]
mol_smiles = "CC(C)(c1ccccc1)c1ccc(O)cc1"
study_target = "human Serotonin, 5-Hydroxytryptamine Receptor 5A (5HT5A), HTR5A (gene 3361)"
observed_property = "AC50"
readout_value = "25 µM (active)"

[[record]]
mol_smiles = "O=C(O)C(F)(F)C(F)(F)C(F)(F)C(F)(F)C(F)(F)C(F)(F)C(F)(F)C(F)(F)C(F)(F)F"
study_target = "human Serotonin, 5-Hydroxytryptamine Receptor 5A (5HT5A), HTR5A (gene 3361)"
observed_property = "AC50"
readout_value = "20.7 µM (active)"

[[record]]
mol_smiles = "CCCCCCCCCC[N+](C)(C)CCCCCCCCCC"
study_target = "human Serotonin, 5-Hydroxytryptamine Receptor 5A (5HT5A), HTR5A (gene 3361)"
observed_property = "AC50"
readout_value = "9.63 µM (active)"

